# SYSTEM UNDER TEST: pooled human IgG
QUANTITY MEASURED: Enzyme Activity Endpoint Assay (purified): Fab′2 (ng/µL)
# value in ng/µL; strip the unit string

Need Enzyme Activity Endpoint Assay (purified): Fab′2 of PRT-622 (protein) MQITSVWTKGVTPLTPEQFRYNNEDVIHAPYLAHQGWYDITKAFDGKDNLLCGAATAGNMLHWWFDQNKTEIEAYLSKHPEKQKIIFNNQELFDLKAAIDTKDSQTNSQLFNYFRDKAFPNLSARQLGVMPDLVLDMFINGYYLNVFKTQSTDVNRPYQDKDKRGGIFDAVFTRGDQTTLLTARHDLKNKTLKEISDIIKQELQSGRALALSHTYANVSISHVINLWGADFNSEGNLIAIYVTDSDANASIGMKKYFVGINAHGHVAISAKKIEGENIGAQVLGLFTLSSGKDIWQKLSLEHHHHHH , thanks.
823
